# Test system: Human colon carcinoma cells HCT-116
# Test protocol: Cytotoxic activity on culture of human colon carcinoma cells HCT-116 (Alamar Blue)
# Format: cell-based
# Condition description: HCT-116 cells, 72 hours after addition of compounds, Alamar Blue viability
Measurement label: IC50 (nM)
Give bare numbers, in nM.

Reference set (3 entries):
Cc1ccc(NC(=O)N2CCC(CCCC(=O)NO)CC2)cc1 [Ex 22] | 940
N[C@@H](CC(=O)N1CCC(CCCC(=O)NO)CC1)c1cccc(Cl)c1 [Ex 168] | 90
NC[C@@H](NC(=O)c1cc2ccccc2s1)C(=O)N1CCC(CCCC(=O)NO)CC1 [Ex 115] | 900

For every item in the list below, what is its measured IC50?
1. N[C@@H](CC(=O)N1CCC(CCCC(=O)NO)CC1)c1ccc2ccccc2c1 [Ex 149]
2. N[C@@H](CCc1ccccc1)C(=O)N1CCC(CCCC(=O)NO)CC1 [Ex 105]

1. 130
2. 950

For every item in the list below, what is its measured IC50?
1. O=C(CCCC1CCN(C(=O)[C@H](CO)NC(=O)c2ccc3sccc3c2)CC1)NO [Ex 114]
2. COc1c(NC(=O)N2CCC(CCCC(=O)NO)CC2)ccc2ccccc12 [Ex 160]
3. N[C@@H](CC(=O)N1CCC(CCCC(=O)NO)CC1)c1cccc(Cl)c1 [Ex 171]
4. COc1cc2ccccc2cc1NC(=O)N1CCC(CCCC(=O)NO)CC1 [Ex 161]
5. O=C(CCCC1CCN(C(=O)Nc2cc3ccccc3s2)CC1)NO [Ex 195]
6. O=C(CCCC1CCN(C(=O)[C@@H](CCO)NC(=O)c2cc3ccccc3s2)CC1)NO [Ex 110]
7. O=C(CCCC1CCN(C(=O)[C@H](CCO)NC(=O)c2cc3ccccc3s2)CC1)NO [Ex 113]
8. O=C(CCCC1CCN(C(=O)CCNc2cccc3ccccc23)CC1)NO [Ex 186]

[340, 200, 400, 30, 400, 260, 270, 360]

###

# System: Human colon carcinoma cells HCT-116
# Test protocol: Cytotoxic activity on culture of human colon carcinoma cells HCT-116 (Alamar Blue)
# Type: cell-based
# Condition description: Homo sapiens, HCT-116, 72 h, HCT-116 cells, 72 hours after addition of compounds, Alamar Blue viability
Decision: IC50 beneath 300 nM gives Condition met; IC50 meeting or exceeding 300 nM gives Condition not met.

Reference set, count: 5
N[C@@H](CC(=O)N1CCC(CCCC(=O)NO)CC1)c1ccccc1 | Condition not met
N[C@H](CC(=O)N1CCC(CCCC(=O)NO)CC1)Cc1cccc2ccccc12 | Condition not met
O=C(CCCC1CCN(C(=O)Nc2cccc(Cl)c2F)CC1)NO | Condition not met
O=C(CCCC1CCN(C(=O)CCNCc2ccccc2)CC1)NO | Condition not met
O=C(CCCC1CCN(C(=O)Nc2ccc(Cl)cc2F)CC1)NO | Condition not met

Input O=C(CCCC1CCN(C(=O)NCc2ccco2)CC1)NO ; condition: IC50 strictly below 300 nM. Does it hold?
Condition not met

Input N[C@H](CC(=O)N1CCC(CCCC(=O)NO)CC1)c1ccc2ccccc2c1 ; condition: IC50 strictly below 300 nM. Does it hold?
Condition not met

Input N[C@H](CC(=O)N1CCC(CCCC(=O)NO)CC1)Cc1csc2ccccc12 ; condition: IC50 strictly below 300 nM. Does it hold?
Condition met

Input O=C(CCCC1CCN(C(=O)NCCCc2c[nH]c3ccccc23)CC1)NO ; condition: IC50 strictly below 300 nM. Does it hold?
Condition met
